# test name: in vivo
# Parameters: species or system male CD-1 mice
# experimental conditions: male, CD-1, mouse, sc, 5 mg/kg
Bridge positions count the residues as written; N and C are the ends. Square brackets hold non-standard residues; d marks the D form. Peptide text beside a SMILES is read from it. * marks the point of attachment. Lauroyl = CCCCCCCCCCCC(=O)*; Dab = NCC[C@H](N)C(=O)O
measurement type: AUC(0-inf) (ng·h/mL)
Please give a number only; it is taken to be in ng·h/mL.

Incoming: Given CCCCCCCCCCCC(=O)NCCCC[C@@H]1NC(=O)[C@H](Cc2ccc(O)cc2)NC(=O)[C@@H]2CSSC[C@H](NC(=O)[C@H](C)NC(=O)[C@H](Cc3c[nH]cn3)NC(=O)[C@H](Cc3ccc(O)cc3)NC(=O)[C@@H]3CCCN3C(=O)[C@H]3CCCN3C(=O)[C@H](CCCCN)NC1=O)C(=O)N[C@@H](CCCNC(=N)N)C(=O)N[C@@H](C)C(=O)N1CCC[C@@H]1C(=O)N[C@@H](CCN)C(=O)N[C@@H](CCCNC(=N)N)C(=O)N[C@@H](Cc1ccc(O)cc1)C(=O)N2 [Ex. 17] (cyclo(YHACRA[dP][Dab]RYCYK(Lauroyl)K[dP]P); disulfide 4-11) , state its recorded AUC(0-inf).
Outgoing: 16800

----------
# test name: in vivo
# Parameters: species or system male CD-1 mice
# experimental conditions: male, CD-1, mouse, sc, 5 mg/kg
# Experimental: 2.7. Pharmacokinetic Study (PK) Pharmacokinetic study after intravenous (i.v.) and subcutaneous (s.c.) administration was performed for the compounds of Ex. 17, Ex. 20, Ex. 25, Ex. 26, Ex. 28, and Ex. 29. […] In order to perform PK analysis pooled plasma data (n=3 mice) was used. PK parameters were calculated by WinNonLin™ software version 5.2.1 (Pharsight—A Certara™ Company, Mountain View, Calif. 94041 USA) using non-compartmental analysis with a linear up/log down trapezoidal calculation method. […]
Bridge positions count the residues as written; N and C are the ends. Square brackets hold non-standard residues; d marks the D form. Peptide text beside a SMILES is read from it. * marks the point of attachment. Lauroyl = CCCCCCCCCCCC(=O)*; Dab = NCC[C@H](N)C(=O)O
measurement type: half-life
Output should be the measured figure followed by the unit it is expressed in.

Incoming: What half-life value was documented for this molecule, CCCCCCCCCCCC(=O)NCCCC[C@@H]1NC(=O)[C@H](Cc2ccc(O)cc2)NC(=O)[C@@H]2CSSC[C@H](NC(=O)[C@H](C)NC(=O)[C@H](Cc3c[nH]cn3)NC(=O)[C@H](Cc3ccc(O)cc3)NC(=O)[C@@H]3CCCN3C(=O)[C@H]3CCCN3C(=O)[C@H](CCCCN)NC1=O)C(=O)N[C@@H](CCCNC(=N)N)C(=O)N[C@@H](C)C(=O)N1CCC[C@@H]1C(=O)N[C@@H](CCN)C(=O)N[C@@H](CCCNC(=N)N)C(=O)N[C@@H](Cc1ccc(O)cc1)C(=O)N2 [Ex. 17] (cyclo(YHACRA[dP][Dab]RYCYK(Lauroyl)K[dP]P); disulfide 4-11) ?
Outgoing: 258 min

----------
Provide the recorded GI50 at 48 h for the entries that follow.
# test name: Cytotoxicity, MTT reduction assay, COS-7 cells
# Assay type: cell-based
# experimental conditions: African green monkey, COS-7 cells (CRL-1651), 12.5-50 μM
Bridge positions count the residues as written; N and C are the ends. Square brackets hold non-standard residues; d marks the D form. Peptide text beside a SMILES is read from it. * marks the point of attachment. Decanoyl = CCCCCCCCCC(=O)*; Dab = NCC[C@H](N)C(=O)O; Dodecyl = CCCCCCCCCCCC*

Incoming: Quick one: GI50 at 48 h for CCCCCCCCCC(=O)NCC[C@@H]1NC(=O)[C@H](Cc2ccc(O)cc2)NC(=O)[C@@H]2CSSC[C@H](NC(=O)[C@H](C)NC(=O)[C@H](Cc3c[nH]cn3)NC(=O)[C@H](Cc3ccc(O)cc3)NC(=O)[C@@H]3CCCN3C(=O)[C@H]3CCCN3C(=O)[C@H](CCCCN)NC1=O)C(=O)N[C@@H](CCCNC(=N)N)C(=O)N[C@@H](C)C(=O)N1CCC[C@@H]1C(=O)N[C@@H](CCN)C(=O)N[C@@H](CCCNC(=N)N)C(=O)N[C@@H](Cc1ccc(O)cc1)C(=O)N2 [Ex. 10] (cyclo(YHACRA[dP][Dab]RYCY[Dab](Decanoyl)K[dP]P); disulfide 4-11) ?
Outgoing: > 50 µM

Incoming: What would you report for CCCCCCCCCCCCOc1ccc(C[C@@H]2NC(=O)[C@H](CCCNC(=N)N)NC(=O)[C@H](CCN)NC(=O)[C@H]3CCCN3C(=O)[C@H](C)NC(=O)[C@H](CCCNC(=N)N)NC(=O)[C@@H]3CSSC[C@H](NC2=O)C(=O)N[C@@H](Cc2ccc(O)cc2)C(=O)N[C@@H](CCC(N)=O)C(=O)N[C@@H](CCCCN)C(=O)N2CCC[C@@H]2C(=O)N2CCC[C@H]2C(=O)N[C@@H](Cc2ccc(O)cc2)C(=O)N[C@@H](Cc2c[nH]cn2)C(=O)N[C@@H](C)C(=O)N3)cc1 [Ex. 7] (cyclo(YHACRA[dP][Dab]RY(Dodecyl)CYQK[dP]P); disulfide 4-11) ?
Outgoing: > 50 µM

----------
Please respond with reported GI50 at 48 h for every item in the list.
# test name: Cytotoxicity, MTT reduction assay, COS-7 cells
# Format: cell-based
# experimental conditions: African green monkey, COS-7 cells (CRL-1651), 12.5-50 μM
Bridge positions count the residues as written; N and C are the ends. Square brackets hold non-standard residues; d marks the D form. Peptide text beside a SMILES is read from it. * marks the point of attachment. Gly(Dodecyl) = CCCCCCCCCCCC[C@H](N)C(=O)O; Myristoyl = CCCCCCCCCCCCCC(=O)*; Lauroyl = CCCCCCCCCCCC(=O)*; Dab = NCC[C@H](N)C(=O)O

Incoming: Which measured GI50 at 48 h value corresponds to CCCCCCCCCCCC(=O)NCCCC[C@@H]1NC(=O)[C@H](Cc2ccc(O)cc2)NC(=O)[C@@H]2CSSC[C@H](NC(=O)[C@H](C)NC(=O)[C@H](Cc3c[nH]cn3)NC(=O)[C@H](Cc3ccc(O)cc3)NC(=O)[C@@H]3CCCN3C(=O)[C@H]3CCCN3C(=O)[C@H](CCCCN)NC1=O)C(=O)N[C@@H](CCCNC(=N)N)C(=O)N[C@@H](C)C(=O)N1CCC[C@@H]1C(=O)N[C@@H](CCN)C(=O)N[C@@H](CCCNC(=N)N)C(=O)N[C@@H](Cc1ccc(O)cc1)C(=O)N2 [Ex. 17] (cyclo(YHACRA[dP][Dab]RYCYK(Lauroyl)K[dP]P); disulfide 4-11) ?
Outgoing: > 50 µM

Incoming: Query CCCCCCCCCCCCCC(=O)NCCCC[C@@H]1NC(=O)[C@H](Cc2ccc(O)cc2)NC(=O)[C@@H]2CSSC[C@H](NC(=O)[C@H](C)NC(=O)[C@H](Cc3c[nH]cn3)NC(=O)[C@H](Cc3ccc(O)cc3)NC(=O)[C@@H]3CCCN3C(=O)[C@H]3CCCN3C(=O)[C@H](CCCCN)NC1=O)C(=O)N[C@@H](CCCNC(=N)N)C(=O)N[C@@H](C)C(=O)N1CCC[C@@H]1C(=O)N[C@@H](CCN)C(=O)N[C@@H](CCCNC(=N)N)C(=O)N[C@@H](Cc1ccc(O)cc1)C(=O)N2 [Ex. 19] (cyclo(YHACRA[dP][Dab]RYCYK(Myristoyl)K[dP]P); disulfide 4-11) next
Outgoing: > 50 µM

Incoming: Likewise for CCCCCCCCCCCC[C@@H]1NC(=O)[C@H](Cc2c[nH]cn2)NC(=O)[C@H](Cc2ccc(O)cc2)NC(=O)[C@@H]2CCCN2C(=O)[C@H]2CCCN2C(=O)[C@H](CCCCN)NC(=O)[C@H](CCC(N)=O)NC(=O)[C@H](Cc2ccc(O)cc2)NC(=O)[C@@H]2CSSC[C@H](NC1=O)C(=O)N[C@@H](CCCNC(=N)N)C(=O)N[C@@H](C)C(=O)N1CCC[C@@H]1C(=O)N[C@@H](CCN)C(=O)N[C@@H](CCCNC(=N)N)C(=O)N[C@@H](Cc1ccc(O)cc1)C(=O)N2 [Ex. 2] (cyclo(YH[Gly(Dodecyl)]CRA[dP][Dab]RYCYQK[dP]P); disulfide 4-11) ?
Outgoing: > 32 µM

----------
# test name: Cytotoxicity, MTT reduction assay, COS-7 cells
# Assay type: cell-based
# experimental conditions: African green monkey, COS-7 cells (CRL-1651), 12.5-50 μM
Bridge positions count the residues as written; N and C are the ends. Square brackets hold non-standard residues; d marks the D form. Peptide text beside a SMILES is read from it. * marks the point of attachment. Octanoyl = CCCCCCCC(=O)*; Dab = NCC[C@H](N)C(=O)O; X3 = CCCCCCCCCC*
measurement type: GI50 at 48 h

Incoming: Which GI50 at 48 h value belongs to CCCCCCCC(=O)NCCCC[C@@H]1NC(=O)[C@H](Cc2ccc(O)cc2)NC(=O)[C@@H]2CSSC[C@H](NC(=O)[C@H](Cc3ccc(O)cc3)NC(=O)[C@H](Cc3c[nH]cn3)NC(=O)[C@H](Cc3ccc(O)cc3)NC(=O)[C@@H]3CCCN3C(=O)[C@H]3CCCN3C(=O)[C@H](CCCCN)NC1=O)C(=O)N[C@@H](CO)C(=O)N[C@@H](C)C(=O)N1CCC[C@@H]1C(=O)N[C@@H](CCN)C(=O)N[C@@H](CCCNC(=N)N)C(=O)N[C@@H](Cc1ccc(O)cc1)C(=O)N2 [Ex. 12] (cyclo(YHYCSA[dP][Dab]RYCYK(Octanoyl)K[dP]P); disulfide 4-11) ?
Outgoing: > 50 µM

Incoming: Try CCCCCCCCCCOC[C@@H]1NC(=O)[C@H](Cc2ccc(O)cc2)NC(=O)[C@@H]2CSSC[C@H](NC(=O)[C@H]([C@@H](C)O)NC(=O)[C@H](Cc3c[nH]cn3)NC(=O)[C@H](Cc3ccc(O)cc3)NC(=O)[C@@H]3CCCN3C(=O)[C@H]3CCCN3C(=O)[C@H](CCC(N)=O)NC1=O)C(=O)N[C@@H](CCCNC(=N)N)C(=O)NCC(=O)N1CCC[C@@H]1C(=O)N[C@@H](CCN)C(=O)N[C@@H](CCCNC(=N)N)C(=O)N[C@@H](Cc1ccc(O)cc1)C(=O)N2 [Ex. 30] (cyclo(YHTCRG[dP][Dab]RYCYS(X3)Q[dP]P); disulfide 4-11) next.
Outgoing: > 50 µM
